Where do these numbers come from? They come from ChEMBL document CHEMBL4138242.

Exercise: for every item that follows, state its recorded MIC.
Tested on: Klebsiella pneumoniae
Assay: Antibacterial activity against drug-resistant carbapenemase producing Klebsiella pneumoniae clinical isolate KP-14-3 after 16 to 20 hrs by broth microdilution method
Type: functional
Numbers only, in µg/mL.

Guide cases for MIC, answers given:
Molecule smiles: CCCCCCCC[N+](C)(C)CC(=O)Nc1ccc(C(=O)/C=C/c2ccc(Cl)cc2)cc1.[Cl-]
MIC (µg/mL): 8

Molecule smiles: CCCCCCCC[N+](C)(C)CC(=O)Nc1ccc(C(=O)/C=C/c2ccc(F)cc2)cc1.[Cl-]
MIC (µg/mL): 8

Molecule smiles: CCCCCCCC[N+](C)(C)CC(=O)Nc1ccc(C(=O)/C=C/c2ccc3ccccc3c2)cc1.[Cl-]
MIC (µg/mL): 16

Provide MIC values for the following items, in order.
1. CCCCCCCC[N+](C)(C)CC(=O)Nc1ccc(C(=O)/C=C/c2ccc(OC)cc2)cc1.[Cl-]
2. CCCCCCCC[N+](C)(C)CC(=O)Nc1ccc(C(=O)/C=C/c2ccc(C)cc2)cc1.[Cl-]
3. CCCCCCCC[N+](C)(C)CC(=O)Nc1ccc(C(=O)/C=C/c2cccs2)cc1.[Cl-]
4. CCCCCCCC[N+](C)(C)CC(=O)Nc1ccc(C(=O)/C=C/c2ccc(F)cc2F)cc1.[Cl-]
5. CCCCCCCC[N+](C)(C)CC(=O)Nc1ccc(C(=O)/C=C/c2ccccc2F)cc1.[Cl-]
6. CCCCCCCC[N+](C)(C)CC(=O)Nc1ccc(C(=O)/C=C/c2ccco2)cc1.[Cl-]
7. CCCCCCCC[N+](C)(C)CC(=O)Nc1ccc(C(=O)/C=C/c2ccccc2C(F)(F)F)cc1.[Cl-]
8. CCCCCCCC[N+](C)(C)CC(=O)Nc1ccc(C(=O)/C=C/c2cccc(Cl)c2)cc1.[Cl-]

[8, 8, 8, 8, 8, 32, 8, 4]

---

Consider the following compounds; for each one, report its MIC.
System: Klebsiella pneumoniae
Test: Antibacterial activity against drug-resistant carbapenemase producing Klebsiella pneumoniae clinical isolate KP-14-1 after 16 to 20 hrs by broth microdilution method
Format: functional
One number for each entry, in µg/mL.

Molecule smiles: CCCCCCCC[N+](C)(C)CC(=O)Nc1ccc(C(=O)/C=C/c2ccc(F)cc2)cc1.[Cl-]
MIC / µg/mL: 4
//
Molecule smiles: CCCCCCCC[N+](C)(C)CC(=O)Nc1ccc(C(=O)/C=C/c2ccc(OC)cc2)cc1.[Cl-]
MIC / µg/mL: 8
//
Molecule smiles: CCCCCCCC[N+](C)(C)CC(=O)Nc1ccc(C(=O)/C=C/c2cccs2)cc1.[Cl-]
MIC / µg/mL: 8
//
Molecule smiles: CCCCCCCC[N+](C)(C)CC(=O)Nc1ccc(C(=O)/C=C/c2ccccc2F)cc1.[Cl-]
MIC / µg/mL: 8
//
Molecule smiles: CCCCCCCC[N+](C)(C)CC(=O)Nc1ccc(C(=O)/C=C/c2ccc(C)cc2)cc1.[Cl-]
MIC / µg/mL: 8

Please state MIC for every compound in the list that follows.
1. CCCCCCCC[N+](C)(C)CC(=O)Nc1ccc(C(=O)/C=C/c2cccc(Cl)c2)cc1.[Cl-]
2. CCCCCCCC[N+](C)(C)CC(=O)Nc1ccc(C(=O)/C=C/c2ccc(F)cc2F)cc1.[Cl-]
3. CCCCCCCC[N+](C)(C)CC(=O)Nc1ccc(C(=O)/C=C/c2ccco2)cc1.[Cl-]
4. CCCCCCCC[N+](C)(C)CC(=O)Nc1ccc(C(=O)/C=C/c2ccc(Cl)cc2)cc1.[Cl-]

[8, 8, 32, 16]

---

Tested on: Escherichia coli
Experiment: Antibacterial activity against drug-resistant NDM1 producing Escherichia coli clinical isolate Ecl-14-58 after 16 to 20 hrs by broth microdilution method
Format: functional
Answer each item with its documented MIC.
Answers are plain numbers, in µg/mL.

Molecule smiles: CCCCCCCC[N+](C)(C)CC(=O)Nc1ccc(C(=O)/C=C/c2ccco2)cc1.[Cl-]
MIC, µg/mL: 16
//
Molecule smiles: CCCCCCCC[N+](C)(C)CC(=O)Nc1ccc(C(=O)/C=C/c2cccs2)cc1.[Cl-]
MIC, µg/mL: 8

Turning now to a further compound:
Which measured MIC value corresponds to CCCCCCCC[N+](C)(C)CC(=O)Nc1ccc(C(=O)/C=C/c2cccc(Cl)c2)cc1.[Cl-] ?
4

---

Record form. Attribute: MIC. Fill in for each entry.
System: Staphylococcus aureus
Test: Antibacterial activity against methicillin-resistant Staphylococcus aureus clinical isolate 1-may after 16 to 20 hrs by broth microdilution method
Type: functional
Numbers only, in µg/mL.

Known MIC results, listed for orientation:
Molecule smiles: CCCCCCCC[N+](C)(C)CC(=O)Nc1ccc(C(=O)/C=C/c2ccco2)cc1.[Cl-]
Result type: MIC
Endpoint value: 4
//
Molecule smiles: CCCCCCCC[N+](C)(C)CC(=O)Nc1ccc(C(=O)/C=C/c2ccc(OC)cc2)cc1.[Cl-]
Result type: MIC
Endpoint value: 1

Next item in the queue.
Given CCCCCCCC[N+](C)(C)CC(=O)Nc1ccc(C(=O)/C=C/c2ccc(F)cc2)cc1.[Cl-] , state its recorded MIC.
1

---

Tested on: Staphylococcus aureus
Test: Antibacterial activity against methicillin-resistant Staphylococcus aureus clinical isolate 1207007 after 16 to 20 hrs by broth microdilution method
Format: functional
Result type: MIC (µg/mL)
Numbers only, in µg/mL.

Illustrative cases are given below, each with its answer.
Molecule smiles: CCCCCCCC[N+](C)(C)CC(=O)Nc1ccc(C(=O)/C=C/c2cccs2)cc1.[Cl-]
Result type: MIC
Endpoint value: 1

Molecule smiles: CCCCCCCC[N+](C)(C)CC(=O)Nc1ccc(C(=O)/C=C/c2ccc(Cl)cc2)cc1.[Cl-]
Result type: MIC
Endpoint value: 0.5

Molecule smiles: CCCCCCCC[N+](C)(C)CC(=O)Nc1ccc(C(=O)/C=C/c2ccc(F)cc2)cc1.[Cl-]
Result type: MIC
Endpoint value: 0.5

Molecule smiles: CCCCCCCC[N+](C)(C)CC(=O)Nc1ccc(C(=O)/C=C/c2ccccc2F)cc1.[Cl-]
Result type: MIC
Endpoint value: 0.25

Molecule smiles: CCCCCCCC[N+](C)(C)CC(=O)Nc1ccc(C(=O)/C=C/c2cccc(Cl)c2)cc1.[Cl-]
Result type: MIC
Endpoint value: 0.5

Molecule smiles: CCCCCCCC[N+](C)(C)CC(=O)Nc1ccc(C(=O)/C=C/c2ccc(C)cc2)cc1.[Cl-]
Result type: MIC
Endpoint value: 0.5

Molecule smiles: CCCCCCCC[N+](C)(C)CC(=O)Nc1ccc(C(=O)/C=C/c2ccc3ccccc3c2)cc1.[Cl-]
Result type: MIC
Endpoint value: 2

Molecule smiles: CCCCCCCC[N+](C)(C)CC(=O)Nc1ccc(C(=O)/C=C/c2ccccc2C(F)(F)F)cc1.[Cl-]
Result type: MIC
Endpoint value: 2

// for each compound below, give its MIC
1. CCCCCCCC[N+](C)(C)CC(=O)Nc1ccc(C(=O)/C=C/c2ccc(F)cc2F)cc1.[Cl-]
2. CCCCCCCC[N+](C)(C)CC(=O)Nc1ccc(C(=O)/C=C/c2ccc(OC)cc2)cc1.[Cl-]
3. CCCCCCCC[N+](C)(C)CC(=O)Nc1ccc(C(=O)/C=C/c2ccco2)cc1.[Cl-]
4. CCCCCCCC[N+](C)(C)CC(=O)Nc1ccc(C(=O)/C=C/c2ccccc2)cc1.[Cl-]

0.5
0.5
2
0.5

---

Test system: Staphylococcus aureus
Test: Antibacterial activity against methicillin-resistant Staphylococcus aureus clinical isolate 0831010 after 16 to 20 hrs by broth microdilution method
Type: functional
Result type: MIC (µg/mL)
Numbers only, in µg/mL.

Reference set, count: 5
Molecule smiles: CCCCCCCC[N+](C)(C)CC(=O)Nc1ccc(C(=O)/C=C/c2ccc(OC)cc2)cc1.[Cl-]
MIC, µg/mL: 0.5
//
Molecule smiles: CCCCCCCC[N+](C)(C)CC(=O)Nc1ccc(C(=O)/C=C/c2ccccc2F)cc1.[Cl-]
MIC, µg/mL: 0.5
//
Molecule smiles: CCCCCCCC[N+](C)(C)CC(=O)Nc1ccc(C(=O)/C=C/c2ccc(C)cc2)cc1.[Cl-]
MIC, µg/mL: 0.5
//
Molecule smiles: CCCCCCCC[N+](C)(C)CC(=O)Nc1ccc(C(=O)/C=C/c2ccc(Cl)cc2)cc1.[Cl-]
MIC, µg/mL: 1
//
Molecule smiles: CCCCCCCC[N+](C)(C)CC(=O)Nc1ccc(C(=O)/C=C/c2ccc3ccccc3c2)cc1.[Cl-]
MIC, µg/mL: 1

For the 7 molecules below, give their MIC values.
1. CCCCCCCC[N+](C)(C)CC(=O)Nc1ccc(C(=O)/C=C/c2ccc(F)cc2)cc1.[Cl-]
2. CCCCCCCC[N+](C)(C)CC(=O)Nc1ccc(C(=O)/C=C/c2ccc(F)cc2F)cc1.[Cl-]
3. CCCCCCCC[N+](C)(C)CC(=O)Nc1ccc(C(=O)/C=C/c2cccs2)cc1.[Cl-]
4. CCCCCCCC[N+](C)(C)CC(=O)Nc1ccc(C(=O)/C=C/c2ccccc2C(F)(F)F)cc1.[Cl-]
5. CCCCCCCC[N+](C)(C)CC(=O)Nc1ccc(C(=O)/C=C/c2ccccc2)cc1.[Cl-]
6. CCCCCCCC[N+](C)(C)CC(=O)Nc1ccc(C(=O)/C=C/c2ccco2)cc1.[Cl-]
7. CCCCCCCC[N+](C)(C)CC(=O)Nc1ccc(C(=O)/C=C/c2cccc(Cl)c2)cc1.[Cl-]

[0.5, 0.5, 0.5, 0.5, 1, 2, 0.5]
